Source of measurements: patent US20260365670A1

molecular target: EGFR L858R/T790M (Homo sapiens, UniProt P00533, L858R/T790M); construct: purchased Carna Bio; assay: Inhibition of EGFR L858R/T790M biochemical enzymatic activity (HTRF); settings: EGFR L858R/T790M, 1 mM ATP, 1 h at room temperature, read-out: IC50 @L858R-T790M
Sequence (P00533 25-1210 T790M/L858R): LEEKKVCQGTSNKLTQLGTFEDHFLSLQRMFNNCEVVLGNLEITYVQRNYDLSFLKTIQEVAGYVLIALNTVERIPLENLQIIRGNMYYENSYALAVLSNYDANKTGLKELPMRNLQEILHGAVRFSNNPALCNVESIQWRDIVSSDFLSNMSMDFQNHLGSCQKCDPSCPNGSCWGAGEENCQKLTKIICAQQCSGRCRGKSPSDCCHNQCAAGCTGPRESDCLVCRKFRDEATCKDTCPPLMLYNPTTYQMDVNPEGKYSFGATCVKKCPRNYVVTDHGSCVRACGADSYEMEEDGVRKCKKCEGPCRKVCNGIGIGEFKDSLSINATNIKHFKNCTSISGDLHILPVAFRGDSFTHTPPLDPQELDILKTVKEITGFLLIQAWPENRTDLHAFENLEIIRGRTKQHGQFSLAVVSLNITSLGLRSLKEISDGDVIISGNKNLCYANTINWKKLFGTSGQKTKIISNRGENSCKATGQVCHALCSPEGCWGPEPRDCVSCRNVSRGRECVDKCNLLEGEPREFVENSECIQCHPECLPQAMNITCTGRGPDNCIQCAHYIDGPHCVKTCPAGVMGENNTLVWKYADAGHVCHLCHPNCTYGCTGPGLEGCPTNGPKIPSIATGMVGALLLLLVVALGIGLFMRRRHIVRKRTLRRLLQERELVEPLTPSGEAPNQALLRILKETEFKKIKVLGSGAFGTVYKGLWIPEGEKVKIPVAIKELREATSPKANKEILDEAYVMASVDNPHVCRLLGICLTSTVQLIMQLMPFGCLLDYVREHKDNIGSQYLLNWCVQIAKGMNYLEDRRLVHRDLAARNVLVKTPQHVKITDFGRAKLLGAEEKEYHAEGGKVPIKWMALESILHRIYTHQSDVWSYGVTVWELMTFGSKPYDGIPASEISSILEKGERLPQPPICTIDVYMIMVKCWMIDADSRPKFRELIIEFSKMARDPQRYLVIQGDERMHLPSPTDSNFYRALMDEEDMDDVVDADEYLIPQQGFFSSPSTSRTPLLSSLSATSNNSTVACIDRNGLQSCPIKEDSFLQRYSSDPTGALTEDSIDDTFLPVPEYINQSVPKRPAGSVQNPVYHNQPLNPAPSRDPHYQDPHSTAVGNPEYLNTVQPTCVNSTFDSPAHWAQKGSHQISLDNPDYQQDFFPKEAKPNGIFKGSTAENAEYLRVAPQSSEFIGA
PROPERTY: log10(IC50) (log10 of the value in nM)

| MOLECULE | log10(IC50) |
| --- | --- |
| Cc1cc2cc(n1)-c1cnn(C)c1OCCN1CC3CCC(CC3)(C1)n1c(nc3ccc(N4CC5CN(C)CC5C4)cc31)NC2=O (stereo not drawn) | 1.20 |
| Cc1cc2cc(n1)-c1cnn(C)c1OCCN1CC3CCC(CC3)(C1)n1c(nc3ccc(N(C)CCN(C)C)cc31)NC2=O | 1.04 |
| Cc1cc2cc(n1)-c1cnn(C)c1OCCN1CC3CCC(CC3)(C1)n1c(nc3ccc(N4CC5CCN(C)C5C4)cc31)NC2=O (stereo not drawn) | 1.11 |
| Cc1cc2cc(n1)-c1cnn(C)c1OCCN1CC3CCC(C3)(C1)n1c(nc3ccc(N4CCOCC4)cc31)NC2=O (single isomer, unassigned) [Example B10A] | 0.41 |
| Cc1cc2cc(n1)-c1cnn(C)c1OCCN1CC3CCC(C3)(C1)n1c(nc3ccc(N4CC5CC4CN5C)cc31)NC2=O (single isomer, unassigned) [Example B53B] | 0.41 |
| Cc1cc2cc(n1)-c1cnn(C)c1OCCN1CC3CCC(C3)(C1)n1c(nc3ccc(N4CCN(C5CC5)CC4)cc31)NC2=O (single isomer, unassigned) [Example B55B] | 0.36 |
| Cc1cc2cc(n1)-c1cnn(C)c1OCCN1CC3CCC(C3)(C1)n1c(nc3ccc(N4CCC5(CCN(C)C5)CC4)cc31)NC2=O (single isomer, unassigned) [Example B52B] | 0.54 |
| CCN1CCN(c2ccc3nc4n(c3c2)C23CCC(CN(CCOc5c(cnn5C)-c5cc(cc(C)n5)C(=O)N4)C2)C3)CC1 (single isomer, unassigned) [Example B56B] | 0.48 |
| Cc1cc2cc(n1)-c1cnn(C)c1OCCN1CCOCC(C1)n1c(nc3ccccc31)NC2=O (single isomer, unassigned) [Example B7A] | 3.42 |
| Cc1cc2cc(n1)-c1cnn(C)c1OCCN1CC3CCC(C3)(C1)n1c(nc3ccc(N4CCC(N5CCN(C)CC5)CC4)cc31)NC2=O (single isomer, unassigned) [Example B59B] | 0.89 |

---

target: EGFR (C797S L858R) (Homo sapiens, UniProt P00533, C797S/L858R); construct: purchased signalchem; experiment: Inhibition of EGFR (C797S L858R) biochemical enzymatic activity (HTRF); conditions: EGFR (C797S L858R), 1 mM ATP, 1 h at room temperature, read-out: IC50 @L858-C797S
Sequence (P00533 25-1210 C797S/L858R): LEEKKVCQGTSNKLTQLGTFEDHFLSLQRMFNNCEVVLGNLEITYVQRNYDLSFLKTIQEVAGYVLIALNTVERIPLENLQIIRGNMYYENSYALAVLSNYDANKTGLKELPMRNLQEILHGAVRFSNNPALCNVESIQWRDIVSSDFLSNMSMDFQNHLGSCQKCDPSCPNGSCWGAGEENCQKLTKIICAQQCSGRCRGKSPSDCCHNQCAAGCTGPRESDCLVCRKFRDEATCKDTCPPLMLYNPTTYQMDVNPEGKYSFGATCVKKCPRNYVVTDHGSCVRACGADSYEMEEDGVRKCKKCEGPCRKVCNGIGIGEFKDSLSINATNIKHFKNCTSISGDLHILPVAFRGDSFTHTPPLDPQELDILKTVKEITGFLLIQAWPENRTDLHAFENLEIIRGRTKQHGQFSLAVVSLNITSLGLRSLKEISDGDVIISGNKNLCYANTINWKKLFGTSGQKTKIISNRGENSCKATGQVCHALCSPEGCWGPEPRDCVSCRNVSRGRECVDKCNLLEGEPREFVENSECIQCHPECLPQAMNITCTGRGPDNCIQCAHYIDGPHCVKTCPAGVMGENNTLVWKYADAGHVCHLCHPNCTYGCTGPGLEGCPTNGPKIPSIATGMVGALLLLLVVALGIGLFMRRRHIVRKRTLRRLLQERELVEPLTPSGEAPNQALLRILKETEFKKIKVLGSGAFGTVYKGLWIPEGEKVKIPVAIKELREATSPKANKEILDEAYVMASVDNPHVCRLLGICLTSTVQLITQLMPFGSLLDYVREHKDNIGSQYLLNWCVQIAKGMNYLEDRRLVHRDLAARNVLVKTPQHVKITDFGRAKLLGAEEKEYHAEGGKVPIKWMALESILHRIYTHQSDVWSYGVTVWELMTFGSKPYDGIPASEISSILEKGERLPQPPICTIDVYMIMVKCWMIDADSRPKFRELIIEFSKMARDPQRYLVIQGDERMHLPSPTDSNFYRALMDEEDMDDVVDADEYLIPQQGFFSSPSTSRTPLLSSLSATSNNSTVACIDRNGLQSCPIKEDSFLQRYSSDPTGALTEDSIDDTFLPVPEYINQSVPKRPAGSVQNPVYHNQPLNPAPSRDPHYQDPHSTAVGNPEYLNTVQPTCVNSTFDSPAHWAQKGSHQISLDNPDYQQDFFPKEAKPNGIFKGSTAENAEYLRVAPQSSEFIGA
pIC50: −log10 of the molar value.

| MOLECULE | pIC50 |
| --- | --- |
| CCN1CCN(c2ccc3nc4n(c3c2)C23CCC(CN(CCOc5c(cnn5C)-c5cc(cc(C)n5)C(=O)N4)C2)C3)CC1 (single isomer, unassigned) [Example B56A] | < 5.30 |
| Cc1cc2cc(n1)-c1cnn(C)c1OCCN1CC3CCC(C3)(C1)n1c(nc3ccc(N4CC[C@@H](N(C)C)C4)cc31)NC2=O (single isomer, unassigned) [Example B42A] | < 5.30 |
| Cc1cc2cc(n1)-c1cnn(C)c1OCCN1CCOCC(C1)n1c(nc3ccccc31)NC2=O (single isomer, unassigned) [Example B7A] | < 5.30 |
